# Tested on: Pseudomonas aeruginosa
# assay.explanation: Antimicrobial activity against mutS::lox-deficient Pseudomonas aeruginosa PAOMSA biofilm harboring nfxB T533C mutant gene selected at 4 ug/ml of azithromycin after 2 passages by Etest method
# Assay type: functional
Measured MIC, listed per entry for reference.

Complete the entry with MIC for CO/N=C(\C(=O)N[C@@H]1C(=O)N2C(C(=O)[O-])=C(C[N+]3(C)CCCC3)CS[C@H]12)c1csc(N)n1 [CEFEPIME]
8 µg/mL

Complete the entry with MIC for NC[C@H]1O[C@H](O[C@H]2[C@H](O)[C@@H](O[C@H]3O[C@H](CO)[C@@H](O)[C@H](N)[C@H]3O)[C@H](N)C[C@@H]2N)[C@H](N)C[C@@H]1O
0.75 µg/mL

Complete the entry with MIC for C[C@H]1[C@H](NC(=O)/C(=N\OC(C)(C)C(=O)O)c2csc(N)n2)C(=O)N1S(=O)(=O)O
0.75 µg/mL

Complete the entry with MIC for C[C@@H](O)[C@H]1C(=O)N2C(C(=O)O)=C(SCCNC=N)C[C@H]12 [IMIPENEM ANHYDROUS]
0.38 µg/mL

Complete the entry with MIC for CC(C)(O/N=C(\C(=O)N[C@@H]1C(=O)N2C(C(=O)[O-])=C(C[n+]3ccccc3)CS[C@H]12)c1csc(N)n1)C(=O)O
1.5 µg/mL

* * *

# Tested on: Pseudomonas aeruginosa
# assay.explanation: Antimicrobial activity against mucA::lox, mutS::lox-deficient Pseudomonas aeruginosa PAOMSAA biofilm harboring nfxB T86C mutant gene selected at 4 ug/ml of azithromycin after 2 passages by Etest method
# Assay type: functional
MIC strictly under 2 µg/mL means yes; at 2 µg/mL or over means no.

compound	label.value
CC(C)(O/N=C(\C(=O)N[C@@H]1C(=O)N2C(C(=O)[O-])=C(C[n+]3ccccc3)CS[C@H]12)c1csc(N)n1)C(=O)O	yes
CO/N=C(\C(=O)N[C@@H]1C(=O)N2C(C(=O)[O-])=C(C[N+]3(C)CCCC3)CS[C@H]12)c1csc(N)n1 [CEFEPIME]	no

Report whether reported MIC is lower than 2 µg/mL (strictly) for C[C@H]1[C@H](NC(=O)/C(=N\OC(C)(C)C(=O)O)c2csc(N)n2)C(=O)N1S(=O)(=O)O
yes

Report whether reported MIC is lower than 2 µg/mL (strictly) for NC[C@H]1O[C@H](O[C@H]2[C@H](O)[C@@H](O[C@H]3O[C@H](CO)[C@@H](O)[C@H](N)[C@H]3O)[C@H](N)C[C@@H]2N)[C@H](N)C[C@@H]1O
yes

Report whether reported MIC is lower than 2 µg/mL (strictly) for C[C@@H](O)[C@H]1C(=O)N2C(C(=O)O)=C(SCCNC=N)C[C@H]12 [IMIPENEM ANHYDROUS]
yes

Report whether reported MIC is lower than 2 µg/mL (strictly) for O=C(O)c1cn(C2CC2)c2cc(N3CCNCC3)c(F)cc2c1=O
no

* * *

# Tested on: Pseudomonas aeruginosa
# assay.explanation: Antimicrobial activity against mucA::lox, mutS::lox-deficient Pseudomonas aeruginosa PAOMSAA biofilm harboring nfxB C89T mutant gene selected at 4 ug/ml of azithromycin after 6 passages by Etest method
# Type: functional
measured.attribute: MIC (µg/mL)
Give the value in µg/mL but do not write µg/mL after it.

Record excerpt, results attached:
molecule	target.of.assay	measured.attribute	reported
C[C@H]1[C@H](NC(=O)/C(=N\OC(C)(C)C(=O)O)c2csc(N)n2)C(=O)N1S(=O)(=O)O	Pseudomonas aeruginosa	MIC	1
C[C@@H](O)[C@H]1C(=O)N2C(C(=O)O)=C(SCCNC=N)C[C@H]12 [IMIPENEM ANHYDROUS]	Pseudomonas aeruginosa	MIC	0.38

Now let's try a different one.
Complete the entry with MIC for O=C(O)c1cn(C2CC2)c2cc(N3CCNCC3)c(F)cc2c1=O
3
